Numbers sourced from ChEMBL document CHEMBL3988442.

- Tested on: Wolbachia pipientis
- measurement.protocol: Anti-Wolbachia Cell-Based Screen
- Assay type: functional
- Set-up: scale not given: in the data most compounds retested in dose-response had high values
- test.conditions: 5 µM
The campaign covered roughly 48,000 compounds. About 13,000 (27%) showed an effect of 50% or more. This is one part of the list.
reported.endpoint: Percent Effect (%)
Provide only the numeric value, understood in %.

Would you please look over these solved cases?
Cc1cc(C(=O)N2CCc3nnc(N)cc3C2)c(C)n1-c1cccnc1 ... -7.22
CC(C)N(C)Cc1n[nH]c2c1CCN(C(=O)c1cc[nH]n1)C2 ... 93.85
COc1nn(C)c2c1CCCN(C(=O)c1cnccn1)C2 ... 102.6
Cc1cc(C)c2c(N3CCN(C(=O)N4CCOCC4)CC3)ncnc2n1 ... 86.86
Cc1nn(C)cc1CN1CCc2nc(-c3cccnc3)nc(O)c2C1 ... 87.93
Cc1cc(Cl)ccc1NCC(=O)Nc1cc(C(C)(C)C)no1 ... -19.79
Cc1cc(C(=O)N2CCc3c(CN(C)C(C)C)n[nH]c3C2)[nH]n1 ... 101.7
COc1nn(C)c2c1CCCN(C(=O)c1c[nH]cn1)C2 ... -44.84
O=S(=O)(CCCn1cncn1)Cc1ccc(F)cc1Cl ... 8.322
COc1ccc(-c2nc3c([nH]2)CCNC3C(=O)O)c2ccccc12 (stereo unspecified) ... -1.412

Percent Effect measured on CN(C)S(=O)(=O)Nc1ccc(-n2nccc2C(F)(F)F)cc1 = -20.66

Entry Cc1nn(C)c2c(N3CCN(C(=O)C4CCC4)CC3)ncnc12 ; Percent Effect = 3.567

Quick note, Percent Effect for Cc1cc(-c2nn(C)c(Cl)c2CN2CCC3(CC2)[C@H](O)C[C@@H]3O)no1 landed at 0.9032

Field Percent Effect (entry O=C(c1cc(COc2ccc3c(c2)OCO3)[nH]n1)N1CCCCO1 ) reads 18.38

For this molecule ( CN(CC1(CO)CC1)C(=O)C1CCC(=O)N(Cc2ccc(Cl)cc2)C1 (stereo unspecified) ), measured Percent Effect is -2.442

Notebook: O=C(c1ccsc1)N1CCc2c(CN3CCCC3)n[nH]c2C1 , Percent Effect read as -0.6462

# Percent Effect of COc1c(NC(=O)N(C)CCOc2ccc(F)cc2)c(C)nn1C = -9.317

# Percent Effect of CC(C)N(C)Cc1n[nH]c2c1CCN(C(=O)c1ccc[nH]1)C2.O=C(O)C(F)(F)F = 99.94

Entry Cc1nc(-c2cnn(C)c2)nc2c1CN(C(=O)c1cccnc1)CC2 , Percent Effect reported as -2.218

// Percent Effect lookup, molecule = Cc1ccc(O)c(CN2CCc3nc(-c4cccnc4)nc(O)c3C2)c1 , result: 101.6

----------
- Tested on: Wolbachia pipientis
- measurement.protocol: Anti-Wolbachia Cell-Based Screen
- Assay type: functional
- Design: scale not given: in the data most compounds retested in dose-response had high values
- test.conditions: 5 µM
The campaign covered roughly 48,000 compounds. About 13,000 (27%) showed an effect of 50% or more. The list shows a part of the results.
reported.endpoint: Percent Effect (%)
Unit % implied. Number only.

The compound listed as CCCc1cc(C(=O)N(Cc2cccnc2)Cc2cccnc2)[nH]n1 shows Percent Effect equal to -21.08

The recorded Percent Effect for CCOCc1cncc2c1CCN(S(=O)(=O)c1ccccc1)C2 is -7.612

Consider O=C(c1ccoc1)N1CCc2c(COCc3ccncc3)cncc2C1 . Its measured Percent Effect is -1.129

Measured Percent Effect, Cc1ccccc1C(=O)CN1C(=O)c2ccccc2CS1(=O)=O : -19.77

// O=C(c1ccsc1)N1CCc2c(COCc3ccncc3)cncc2C1 : Percent Effect value = 6.158

The compound COc1ccccc1CCNC(=O)N1CCCC(c2nncn2C)C1 (stereo unspecified) showed Percent Effect equal to 0.4535
